protocol.summary: Inhibition of Achromobacter xylosoxidans CIP69598 beta-lactamase OXA-114a expressed in Escherichia coli TOP10 assessed as reduction of benzyl-penicillin hydrolysis
measured.endpoint: Ki (nM)

>  <structure.smiles.string>
CCN1CCN(C(=O)N[C@@H](C(=O)N[C@@H]2C(=O)N3[C@@H]2SC(C)(C)[C@@H]3C(=O)O)c2ccccc2)C(=O)C1=O

>  <measured.endpoint>
Ki

>  <value.reported>
1000

$$$$

----------
System: Achromobacter xylosoxidans
protocol.summary: Activity of Achromobacter xylosoxidans CIP69598 beta-lactamase OXA-114a expressed in Escherichia coli TOP10 assessed as compound hydrolysis

>  <compound>
CC1(C)S[C@@H]2[C@H](NC(=O)Cc3ccccc3)C(=O)N2[C@H]1C(=O)O

>  <unit.name>
µM

>  <inequality.symbol>
=

>  <Km>
10

$$$$
>  <compound>
CC(=O)OCC1=C(C(=O)O)N2C(=O)[C@@H](NC(=O)Cc3cccs3)[C@H]2SC1

>  <unit.name>
µM

>  <inequality.symbol>
=

>  <Km>
15

$$$$
>  <compound>
CC1(C)S[C@@H]2[C@H](NC(=O)[C@H](C(=O)O)c3ccsc3)C(=O)N2[C@H]1C(=O)O

>  <unit.name>
µM

>  <inequality.symbol>
=

>  <Km>
40

$$$$
>  <compound>
C[C@@H](O)[C@H]1C(=O)N2C(C(=O)O)=C(SCCNC=N)C[C@H]12 [IMIPENEM ANHYDROUS]

>  <unit.name>
µM

>  <inequality.symbol>
>

>  <Km>
2000

$$$$

----------
Test system: Achromobacter xylosoxidans
protocol.summary: Ratio of Kcat to Km for Achromobacter xylosoxidans CIP69598 beta-lactamase OXA-114a expressed in Escherichia coli TOP10
Design: unit not given here
measured.endpoint: Ratio

>  <compound>
CC(=O)OCC1=C(C(=O)O)N2C(=O)[C@@H](NC(=O)Cc3cccs3)[C@H]2SC1 [CEPHALOTHIN]

>  <target.or.test.system>
Achromobacter xylosoxidans

>  <value.reported>
30

$$$$
>  <compound>
CCN1CCN(C(=O)N[C@@H](C(=O)N[C@@H]2C(=O)N3[C@@H]2SC(C)(C)[C@@H]3C(=O)O)c2ccccc2)C(=O)C1=O [PIPERACILLIN]

>  <target.or.test.system>
Achromobacter xylosoxidans

>  <value.reported>
100

$$$$
>  <compound>
CC1(C)S[C@@H]2[C@H](NC(=O)[C@H](C(=O)O)c3ccsc3)C(=O)N2[C@H]1C(=O)O [TICARCILLIN]

>  <target.or.test.system>
Achromobacter xylosoxidans

>  <value.reported>
2.5

$$$$
>  <compound>
CC1(C)S[C@@H]2[C@H](NC(=O)Cc3ccccc3)C(=O)N2[C@H]1C(=O)O

>  <target.or.test.system>
Achromobacter xylosoxidans

>  <value.reported>
10

$$$$

----------
Tested on: Escherichia coli
protocol.summary: Antibacterial activity against Escherichia coli TOP10 by agar dilution method
Type: functional
# if measured MIC < 2 µg/mL: y  # else: n

>  <molecule>
CO[C@@]1(NC(=O)Cc2cccs2)C(=O)N2C(C(=O)O)=C(COC(N)=O)CS[C@@H]21 [CEFOXITIN]

>  <label.value>
n

$$$$
>  <molecule>
CC(C)(O/N=C(\C(=O)N[C@@H]1C(=O)N2C(C(=O)[O-])=C(C[n+]3ccccc3)CS[C@H]12)c1csc(N)n1)C(=O)O [CEFTAZIDIME]

>  <label.value>
y

$$$$
>  <molecule>
CCN1CCN(C(=O)N[C@@H](C(=O)N[C@@H]2C(=O)N3[C@@H]2SC(C)(C)[C@@H]3C(=O)O)c2ccccc2)C(=O)C1=O [PIPERACILLIN]

>  <label.value>
y

$$$$
>  <molecule>
CO[C@@]1(NC(=O)C(C(=O)O)c2ccc(O)cc2)C(=O)N2C(C(=O)O)=C(CSc3nnnn3C)CO[C@@H]21 (some centres undefined) [MOXALACTAM]

>  <label.value>
y

$$$$
>  <molecule>
CO/N=C(\C(=O)N[C@@H]1C(=O)N2C(C(=O)O)=C(COC(C)=O)CS[C@H]12)c1csc(N)n1 [CEFOTAXIME]

>  <label.value>
y

$$$$
